Test system: Escherichia coli TOP10
Assay: shrunken log2 fold change of peptide-encoding DNA abundance (4.5 h post-induction vs induction); higher = less antimicrobial activity (less host growth inhibition)
Details: time post-induction: 4.5 h; library: site-saturation at positions 5, 18, 19, 20
measuredQuantity: shrunken log2 fold change
Please give only the number in your answer, with no unit.

recordsequence=RRIRKRPPRLPRPRPRPAGKPRP assaysystem="Escherichia coli TOP10" measuredquantity="shrunken log2 fold change" recordedmeasurement=0.582
recordsequence=RRIRVRPPRLPRPRPRPQEKPRP assaysystem="Escherichia coli TOP10" measuredquantity="shrunken log2 fold change" recordedmeasurement=0.0369
recordsequence=RRIRNRPPRLPRPRPRPGWFPRP assaysystem="Escherichia coli TOP10" measuredquantity="shrunken log2 fold change" recordedmeasurement=-0.00934

Now for the sequence whose shrunken log2 fold change we want.
-- ask Query: shrunken log2 fold change; subject: `RRIRLRPPRLPRPRPRPFQSPRP`
-- reply 0.0501

---

Property: shrunken log2 fold change; scope: individual sequences
System: Escherichia coli TOP10
Experiment: shrunken log2 fold change of peptide-encoding DNA abundance (4.5 h post-induction vs induction); higher = less antimicrobial activity (less host growth inhibition)
Details: time post-induction: 4.5 h; library: site-saturation at positions 5, 18, 19, 20

Some sequences with recorded shrunken log2 fold change:
recordsequence=RRIRKRPPRLPRPRPRPKYIPRP recordedmeasurement=-0.0449
recordsequence=RRIRTRPPRLPRPRPRPHTPPRP recordedmeasurement=0.0178
recordsequence=RRIRYRPPRLPRPRPRPQCPPRP recordedmeasurement=-0.15

-- ask Notebook entry, Escherichia coli TOP10 assay: shrunken log2 fold change of `RRIRKRPPRLPRPRPRPYNNPRP` = ?
-- reply -0.286

-- ask Notebook entry, Escherichia coli TOP10 assay: shrunken log2 fold change of `RRIRNRPPRLPRPRPRPWCAPRP` = ?
-- reply -0.0696

-- ask Notebook entry, Escherichia coli TOP10 assay: shrunken log2 fold change of `RRIRPRPPRLPRPRPRPANDPRP` = ?
-- reply -0.155

-- ask Notebook entry, Escherichia coli TOP10 assay: shrunken log2 fold change of `RRIRMRPPRLPRPRPRPWPHPRP` = ?
-- reply 0.512

---

Test system: Escherichia coli TOP10
Assay: shrunken log2 fold change of peptide-encoding DNA abundance (4.5 h post-induction vs induction); higher = less antimicrobial activity (less host growth inhibition)
Conditions: time post-induction: 4.5 h; library: site-saturation at positions 5, 18, 19, 20
measuredQuantity: shrunken log2 fold change

Some sequences with recorded shrunken log2 fold change:
recordsequence=RRIRMRPPRLPRPRPRPSTNPRP measuredquantity="shrunken log2 fold change" recordedmeasurement=0.0712
recordsequence=RRIRTRPPRLPRPRPRPCMWPRP measuredquantity="shrunken log2 fold change" recordedmeasurement=0.0746
recordsequence=RRIRTRPPRLPRPRPRPLLGPRP measuredquantity="shrunken log2 fold change" recordedmeasurement=-0.185
recordsequence=RRIRFRPPRLPRPRPRPWKAPRP measuredquantity="shrunken log2 fold change" recordedmeasurement=0.0062

Now for the sequence whose shrunken log2 fold change we want.
-- ask Query: shrunken log2 fold change; subject: `RRIRLRPPRLPRPRPRPFETPRP`
-- reply -0.241

---

Tested on: Escherichia coli TOP10
Test: shrunken log2 fold change of peptide-encoding DNA abundance (4.5 h post-induction vs induction); higher = less antimicrobial activity (less host growth inhibition)
Details: time post-induction: 4.5 h; library: site-saturation at positions 5, 18, 19, 20
Assign class by shrunken log2 fold change: not lower than 0.2 means true (1); lower than 0.2 means false (0).

Examples from the recorded data:
recordsequence=RRIRTRPPRLPRPRPRPQVSPRP assaysystem="Escherichia coli TOP10" classassignment="false (0)"
recordsequence=RRIRKRPPRLPRPRPRPGTMPRP assaysystem="Escherichia coli TOP10" classassignment="false (0)"
recordsequence=RRIRVRPPRLPRPRPRPGSWPRP assaysystem="Escherichia coli TOP10" classassignment="true (1)"

-- ask Is the recorded value of shrunken log2 fold change equal to or greater than 0.2 for this sequence? `RRIRERPPRLPRPRPRPQCDPRP`
-- reply false (0)

-- ask Is the recorded value of shrunken log2 fold change equal to or greater than 0.2 for this sequence? `RRIRIRPPRLPRPRPRPQWSPRP`
-- reply false (0)

-- ask Is the recorded value of shrunken log2 fold change equal to or greater than 0.2 for this sequence? `RRIRKRPPRLPRPRPRPHAKPRP`
-- reply true (1)

-- ask Is the recorded value of shrunken log2 fold change equal to or greater than 0.2 for this sequence? `RRIRSRPPRLPRPRPRPEFLPRP`
-- reply true (1)

-- ask Is the recorded value of shrunken log2 fold change equal to or greater than 0.2 for this sequence? `RRIRFRPPRLPRPRPRPRWFPRP`
-- reply false (0)

-- ask Is the recorded value of shrunken log2 fold change equal to or greater than 0.2 for this sequence? `RRIRPRPPRLPRPRPRPRKHPRP`
-- reply false (0)

-- ask Is the recorded value of shrunken log2 fold change equal to or greater than 0.2 for this sequence? `RRIRLRPPRLPRPRPRPRHKPRP`
-- reply true (1)

---

Property: shrunken log2 fold change; scope: individual sequences
Tested on: Escherichia coli TOP10
Assay: shrunken log2 fold change of peptide-encoding DNA abundance (4.5 h post-induction vs induction); higher = less antimicrobial activity (less host growth inhibition)
Conditions: time post-induction: 4.5 h; library: site-saturation at positions 5, 18, 19, 20
Please give only the number in your answer, with no unit.

recordsequence=RRIRERPPRLPRPRPRPTGCPRP assaysystem="Escherichia coli TOP10" recordedmeasurement=0.155
recordsequence=RRIRDRPPRLPRPRPRPSPPPRP assaysystem="Escherichia coli TOP10" recordedmeasurement=-0.15
recordsequence=RRIRKRPPRLPRPRPRPGSWPRP assaysystem="Escherichia coli TOP10" recordedmeasurement=0.571
recordsequence=RRIRDRPPRLPRPRPRPDHHPRP assaysystem="Escherichia coli TOP10" recordedmeasurement=-0.616
recordsequence=RRIRSRPPRLPRPRPRPEQLPRP assaysystem="Escherichia coli TOP10" recordedmeasurement=-0.0808
recordsequence=RRIRRRPPRLPRPRPRPSIRPRP assaysystem="Escherichia coli TOP10" recordedmeasurement=-0.219
recordsequence=RRIRRRPPRLPRPRPRPDWRPRP assaysystem="Escherichia coli TOP10" recordedmeasurement=0.36
recordsequence=RRIRTRPPRLPRPRPRPKEYPRP assaysystem="Escherichia coli TOP10" recordedmeasurement=-1.07

-- ask Query: shrunken log2 fold change; subject: `RRIRARPPRLPRPRPRPWREPRP`
-- reply -0.0619

-- ask Query: shrunken log2 fold change; subject: `RRIRYRPPRLPRPRPRPVNRPRP`
-- reply -0.655

-- ask Query: shrunken log2 fold change; subject: `RRIRGRPPRLPRPRPRPETRPRP`
-- reply 0.109

---

Test system: Escherichia coli TOP10
Test: shrunken log2 fold change of peptide-encoding DNA abundance (4.5 h post-induction vs induction); higher = less antimicrobial activity (less host growth inhibition)
Settings: time post-induction: 4.5 h; library: site-saturation at positions 5, 18, 19, 20
Assign class by shrunken log2 fold change: not lower than 0.1 means MET; lower than 0.1 means NOT MET.

Examples from the recorded data:
recordsequence=RRIRERPPRLPRPRPRPWCCPRP assaysystem="Escherichia coli TOP10" classassignment="NOT MET"
recordsequence=RRIRLRPPRLPRPRPRPEQHPRP assaysystem="Escherichia coli TOP10" classassignment=MET
recordsequence=RRIRCRPPRLPRPRPRPDMGPRP assaysystem="Escherichia coli TOP10" classassignment="NOT MET"
recordsequence=RRIRLRPPRLPRPRPRPEGSPRP assaysystem="Escherichia coli TOP10" classassignment="NOT MET"
recordsequence=RRIRSRPPRLPRPRPRPDRCPRP assaysystem="Escherichia coli TOP10" classassignment="NOT MET"

-- ask Is the recorded value of shrunken log2 fold change equal to or greater than 0.1 for this sequence? `RRIRDRPPRLPRPRPRPRHNPRP`
-- reply NOT MET

-- ask Is the recorded value of shrunken log2 fold change equal to or greater than 0.1 for this sequence? `RRIRRRPPRLPRPRPRPHAVPRP`
-- reply MET

-- ask Is the recorded value of shrunken log2 fold change equal to or greater than 0.1 for this sequence? `RRIRWRPPRLPRPRPRPWTPPRP`
-- reply NOT MET

---

Test system: Escherichia coli TOP10;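 further: peptides expressed intracellularly from a pBAD plasmid library in pooled LB shake-flask culture, induced with 0.3% L-arabinose, DNA abundance read by NGS, three biological replicates, DESeq2 with apeglm shrinkage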
Test: shrunken log2 fold change of peptide-encoding DNA abundance (4.5 h post-induction vs induction); higher = less antimicrobial activity (less host growth inhibition)
Settings: time post-induction: 4.5 h; library: site-saturation at positions 5, 18, 19, 20
Assign class by shrunken log2 fold change: not lower than 0.3 means Met; lower than 0.3 means Not met.

recordsequence=RRIRCRPPRLPRPRPRPVWAPRP classassignment=Met

-- ask Is the recorded value of shrunken log2 fold change equal to or greater than 0.3 for this sequence? `RRIRTRPPRLPRPRPRPIFRPRP`
-- reply Not met

-- ask Is the recorded value of shrunken log2 fold change equal to or greater than 0.3 for this sequence? `RRIRWRPPRLPRPRPRPVATPRP`
-- reply Met

-- ask Is the recorded value of shrunken log2 fold change equal to or greater than 0.3 for this sequence? `RRIRHRPPRLPRPRPRPGPHPRP`
-- reply Not met

-- ask Is the recorded value of shrunken log2 fold change equal to or greater than 0.3 for this sequence? `RRIRGRPPRLPRPRPRPPVEPRP`
-- reply Met

-- ask Is the recorded value of shrunken log2 fold change equal to or greater than 0.3 for this sequence? `RRIRKRPPRLPRPRPRPARAPRP`
-- reply Met

-- ask Is the recorded value of shrunken log2 fold change equal to or greater than 0.3 for this sequence? `RRIRMRPPRLPRPRPRPFRNPRP`
-- reply Not met

-- ask Is the recorded value of shrunken log2 fold change equal to or greater than 0.3 for this sequence? `RRIRGRPPRLPRPRPRPIWFPRP`
-- reply Met

-- ask Is the recorded value of shrunken log2 fold change equal to or greater than 0.3 for this sequence? `RRIRRRPPRLPRPRPRPNMYPRP`
-- reply Not met

-- ask Is the recorded value of shrunken log2 fold change equal to or greater than 0.3 for this sequence? `RRIRHRPPRLPRPRPRPIKIPRP`
-- reply Not met

-- ask Is the recorded value of shrunken log2 fold change equal to or greater than 0.3 for this sequence? `RRIRMRPPRLPRPRPRPESEPRP`
-- reply Met

-- ask Is the recorded value of shrunken log2 fold change equal to or greater than 0.3 for this sequence? `RRIRPRPPRLPRPRPRPEGAPRP`
-- reply Met

-- ask Is the recorded value of shrunken log2 fold change equal to or greater than 0.3 for this sequence? `RRIRKRPPRLPRPRPRPRCLPRP`
-- reply Not met
